- Tested on: MALME-3M melanoma
- ASSAY_OVERVIEW: NCI-60 one-dose screen, 48 h (100 = growth as untreated, 0 = no growth, -100 = all killed)
- CONDITIONS: 10 µM unless noted
This is part of a sample that, as a whole, favours compounds with a hit. Of some 83,000 tested, about 20% had one in any assay. The source made the active and inactive calls. Rule for the calls: active = growth percent below 10; inactive = the rest.
TEST_READOUT: growth

COMPOUND	VALUE_OBSERVED
CN1C(=O)N(c2ccccc2)C2N=C(N/N=C/c3ccccc3)SC21 (configuration not stated)	47.9% (inactive)
Cc1ccc2c(n1)C(=O)C(Cl)=C(Nc1cccc(C(C)C)c1)C2=O	83.8% (inactive)
CO/N=C1\CCc2c(sc(NC(=O)c3cccc(C(F)(F)F)c3)c2C(N)=O)C1	29.4% (inactive)
CCC/C=C/C=C/C(=O)N[C@@H](Cc1cc(F)cc(F)c1)C(=O)N[C@@H]1C(=O)N2CCC[C@H]2C(=O)N2CCCC[C@H]2C(=O)N[C@@H](C)C(=O)N2C[C@H](C)C[C@H]2C(=O)O[C@H]1C	30.8% (inactive)
C/C(=C(/c1ccc(Cl)cc1)c1ccc(OCCN)cc1)c1ccc(C)cc1	101% (inactive)
N#Cc1nc(-c2ccccc2)oc1N1CCC(CO)C1 (configuration not stated)	94.3% (inactive)
COc1cc(OC)c(C2C(Cl)C(=O)N2Nc2ncnc3ccccc23)cc1OC (configuration not stated)	93.2% (inactive)
Nc1cc(-c2c[nH]c3ccccc23)nc2cc(-c3c[nH]c4ccccc34)nn12	64.5% (inactive)
Cc1cccc(/C=C/c2nn3c(-c4ccco4)nnc3s2)c1	96.9% (inactive)
Nc1nc(N)c2c(n1)NC(c1ccc(F)cc1)CC(c1ccc(Nc3nc(NCCO)nc(Nc4ccc(Cl)cc4)n3)cc1)=N2 (configuration not stated)	-60.4% (active)
Cn1cc(-c2cc(N)n3nc(-c4cn(C)c5ccc(Br)cc45)cc3n2)c2cc(Br)ccc21	102% (inactive)
COc1cc(-c2nc3ccc(-c4nnc(SCC(=O)Nc5ccc(C(=O)/C=C/c6ccc(Cl)cc6)cc5)o4)cc3[nH]2)cc(OC)c1OC	101% (inactive)
N#Cc1c(-c2ccc(F)cc2)nc2c(C#N)c(Nc3ccccc3)nn2c1N	113% (inactive)
N#Cc1nc(-c2ccccc2)oc1S(=O)(=O)N1CCN(CCc2ccccn2)CC1	-66.9% (active)
N#Cc1c(-c2ccc(Cl)cc2)nc(SCc2ccccc2)nc1N1CCNCC1	84.4% (inactive)
CN(C)CCCOc1c2ccc(Cl)cc2nc2c1oc1ccccc12	-81.2% (active)
O=C(Oc1ccc2ccc(=O)oc2c1)c1ccc(Cl)cc1	102% (inactive)
COc1cc(/C=C/C(=O)c2ccc(C(F)(F)F)cc2)ccc1Oc1nc(NCCO)nc(N2CCOCC2)n1	85.7% (inactive)
Cc1sc2c(c1C)c(=O)nc1c(-c3nc(-c4ccc(F)cc4)no3)n[nH]n12	96.6% (inactive)
Cc1c(Nc2nnc(SCC(=O)Nc3sc4c(c3C#N)CCCC4)s2)c(=O)n(-c2ccccc2)n1C	119% (inactive)
Cc1cc2nc3c4cc(Cl)ccc4n(CC(=S)NCCN(C)C)c3nc2cc1C	-49.2% (active)
CN(C)c1ccc(/C=c2\sc3nc4ccccc4n3c2=O)cc1	101% (inactive)
COc1ccc(/C=C2\SC(=Nc3cc(C)on3)NC2=O)cc1	95.9% (inactive)
COc1cccc(-c2nn(-c3ccccc3)cc2-c2ccnc(N3CCN(C(=O)c4ccccc4)CC3)c2)c1	89.7% (inactive)
CN(C)CCCNc1c2ccccc2nc2c1oc1ccc(Cl)cc12	30.7% (inactive)
COC(=O)C1CN(S(=O)(=O)/N=C2\NC(=O)NC2=C(Cl)Cl)C1	104% (inactive)
O=C(N/N=C/c1ccc([N+](=O)[O-])o1)c1[nH]c2ccc(Br)cc2c1-c1ccccc1	23% (inactive)
